Each recorded value in this set is attributed to patent US20150315188A1.

- target.or.test.system: Human adrenergic α1B receptor (Homo sapiens, UniProt P35368)
- Sequence (P35368 1-520): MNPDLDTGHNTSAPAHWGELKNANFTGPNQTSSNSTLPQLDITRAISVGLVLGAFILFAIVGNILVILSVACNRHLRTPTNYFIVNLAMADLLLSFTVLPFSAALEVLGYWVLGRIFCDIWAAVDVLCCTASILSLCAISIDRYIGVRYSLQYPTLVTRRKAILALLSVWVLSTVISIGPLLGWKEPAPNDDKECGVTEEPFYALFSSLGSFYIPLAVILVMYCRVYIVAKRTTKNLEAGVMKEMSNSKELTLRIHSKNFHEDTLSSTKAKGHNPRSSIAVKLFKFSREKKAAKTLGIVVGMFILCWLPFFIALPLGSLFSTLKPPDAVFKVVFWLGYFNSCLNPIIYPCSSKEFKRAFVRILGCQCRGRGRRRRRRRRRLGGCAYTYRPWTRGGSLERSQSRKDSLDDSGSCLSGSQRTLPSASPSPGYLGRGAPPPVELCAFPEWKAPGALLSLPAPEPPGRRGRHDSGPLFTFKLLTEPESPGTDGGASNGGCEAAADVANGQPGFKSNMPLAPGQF
- method.notes: β-Arrestin GPCR functional assay, adrenergic α1B (Protocol B)
- test.parameters: β-arrestin, antagonist vs nor-epinephrine EC80
value.kind: IC50 (nM)

Cc1cc(F)cc2c3c(n(CC(C)(O)c4cccnc4)c12)CCN1CCCC31 (single isomer, unassigned) [75a] :: 719
Cc1ccc2c(c1)c1c(n2CC(O)c2ccncc2)CC[N+]2([O-])CCCC12 (stereo not drawn) :: 1210
Cc1ccc2c(c1)c1c(n2CC(O)c2ccncc2F)CCN2CCCC12 (single isomer, unassigned) [14a] :: 99
Cc1ccc2c(c1)c1c(n2CC(OCC2CCC2)c2ccncc2)CCN2CCCC12 (single isomer, unassigned) [138a] :: 72.2
Cc1cc(C)c2c(c1)c1c(n2CC(C)(O)c2cccnc2)CCN2CCCC12 (single isomer, unassigned) [44b] :: 252
Cc1cc2c3c(n(CC(C)(O)c4ccncc4)c2cc1Cl)CCN1CCCC31 (single isomer, unassigned) [50b] :: 54
Cc1ccc2c(c1)c1c(n2CC(OC2CCCC2)c2ccncc2)CCN(C)C1 (single isomer, unassigned) [35a] :: 672
Cc1ccc2c(c1)c1c(n2CC(C)(O)c2ccc(F)nc2)CCN2CCCC12 (single isomer, unassigned) :: 121
CCCOC(Cn1c2c(c3cc(C)ccc31)CN(C)CC2)c1ccncc1 (single isomer, unassigned) [42b] :: 1140

* * *

Measured inhibition at 0.3 µM of individual entries
- target.or.test.system: Human adrenergic α2A receptor (Homo sapiens)
- Sequence (P08913 whole entry): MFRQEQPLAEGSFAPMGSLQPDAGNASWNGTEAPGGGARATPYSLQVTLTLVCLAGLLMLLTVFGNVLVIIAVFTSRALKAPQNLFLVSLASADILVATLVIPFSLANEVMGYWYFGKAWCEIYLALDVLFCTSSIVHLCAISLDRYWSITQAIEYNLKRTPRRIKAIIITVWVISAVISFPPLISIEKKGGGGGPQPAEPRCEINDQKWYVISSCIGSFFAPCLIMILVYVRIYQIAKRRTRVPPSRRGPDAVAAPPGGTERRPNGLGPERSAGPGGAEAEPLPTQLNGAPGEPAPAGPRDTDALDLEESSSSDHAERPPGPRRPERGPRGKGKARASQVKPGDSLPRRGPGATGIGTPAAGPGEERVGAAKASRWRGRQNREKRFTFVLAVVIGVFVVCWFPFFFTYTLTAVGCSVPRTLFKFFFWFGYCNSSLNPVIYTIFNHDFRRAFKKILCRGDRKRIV
- method.notes: β-Arrestin GPCR functional assay, adrenergic α2A (Protocol B)
- Format: cell-based
- test.parameters: 0.3 μM compound; nor-epinephrine at EC80 (270 nM); read-out: Percentage inhibition, Adrenergic α2A
value.kind: inhibition at 0.3 µM (%)

Cc1ccc2c(c1)c1c(n2CC(C)(O)c2ccncc2)CCN2CCCC12 (single isomer, unassigned) [13a] :: 21
OC(Cn1c2c(c3cc(F)ccc31)C1CCCN1CC2)c1ccncc1 (single isomer, unassigned) [18b] :: 18
Cc1ccc2c(c1)c1c(n2CC(O)c2ccncc2)CC[N+]2([O-])CCCC12 (stereo not shown) :: 1
Cc1cc(C)c2c(c1)c1c(n2CC(C)(O)c2ccncc2)CCN2CCCC12 (single isomer, unassigned) [19a] :: 23

* * *

Measured Percentage inhibition of ligand binding, Adrenergic α2B (30 nM) of individual entries
- target.or.test.system: Human adrenergic α2B receptor (Homo sapiens)
- Sequence (P18089 whole entry): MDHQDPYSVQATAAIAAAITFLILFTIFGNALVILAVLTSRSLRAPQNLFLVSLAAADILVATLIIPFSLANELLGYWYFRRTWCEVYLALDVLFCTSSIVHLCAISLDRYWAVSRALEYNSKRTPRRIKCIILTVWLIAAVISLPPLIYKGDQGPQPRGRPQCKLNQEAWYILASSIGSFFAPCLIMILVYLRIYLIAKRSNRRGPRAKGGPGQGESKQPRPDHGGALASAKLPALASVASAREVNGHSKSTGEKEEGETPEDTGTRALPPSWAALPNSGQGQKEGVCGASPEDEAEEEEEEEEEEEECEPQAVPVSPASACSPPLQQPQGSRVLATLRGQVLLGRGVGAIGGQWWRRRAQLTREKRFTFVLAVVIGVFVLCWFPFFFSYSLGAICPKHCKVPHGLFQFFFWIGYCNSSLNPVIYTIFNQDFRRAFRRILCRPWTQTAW
- method.notes: Radioligand binding, adrenergic α2B (Protocol Group B)
- Parameters: purchased Milipore (Millipore)
- test.parameters: 30 nM compound; Protocol Group B; 0.03 µM
- Procedure: To evaluate the activity of compounds in radioligand binding assays, Human adrenergic α2B receptor obtained from recombinant cell membrane from Milipore. Binding experiments were carried out in Tris-HCl buffer (50 mM Tris-HCl buffer, pH 7.4, 5 mM Mgcl2, 1 mM Cacl2, 0.2% BSA) as recommended by Milipore. […] Non-specific binding was estimated in the presence of 10 μM Rauwolscine. […] Compounds were screened at various concentrations, using 1% DMSO as vehicle. […]
value.kind: Percentage inhibition of ligand binding, Adrenergic α2B (30 nM)

Cc1cc(C)c2c(c1)c1c(n2CC(O)C2CCCCC2)CCN2CCCC12 (stereo not drawn) [141b] :: 92%
Cc1ccc2c(c1)c1c(n2CC(C)(O)c2cccnc2)CC2CCC1N2C (single isomer, unassigned) [101b] :: 3%
Cc1ccc2c(c1)c1c(n2CC(OCC2CCC2)c2ccncc2)CCN2CCCC12 (single isomer, unassigned) [138d] :: 11%
Cc1ccc2c(c1)c1c(n2CC(O)c2ccccn2)CC2CCCN2C1 (single isomer, unassigned) [45a] :: 16%
CC(O)(Cn1c2c(c3cc(Cl)cc(F)c31)C1CCCN1CC2)c1ccncc1 (single isomer, unassigned) [52c] :: 11%
Cc1ccc2c(c1)c1c(n2CC(C)(O)c2cccnc2)CCN(C)C1CO (single isomer, unassigned) [16a] :: −14%
Cc1ccc2c(c1)c1c(n2CC(C)(O)c2cccnc2)CC(CO)N(C)C1 (single isomer, unassigned) [15a] :: 48%
Cc1cc(F)cc2c3c(n(CC(C)(O)c4ccncc4)c12)CC1CCCN1C3 (single isomer, unassigned) [78c] :: 33%
CN1CCc2c(c3cc(CCO)ccc3n2CC(C)(O)c2cccnc2)C1 (single isomer, unassigned) [139a] :: 31%
Cc1cc(F)c2c(c1)c1c(n2CC(O)c2ccncc2)CCN2CCCC12 (single isomer, unassigned) [137c] :: 10%
Cc1ccc2c(c1F)c1c(n2CC(C)(O)c2cccnc2)CCN2CCCC12 (single isomer, unassigned) [87a] :: 63%
Cc1ccc2c(c1)c1c(n2CC(C)(O)c2ccncc2)CCN2CCCC12 (single isomer, unassigned) [13d] :: 27%
Cc1ccc2c(c1)c1c(n2CC(C)(O)c2cnc3ccccc3c2)CCN(C)C1 (single isomer, unassigned) [32b] :: 14%
Cc1ccc2c(c1)c1c(n2CC(O)c2cccnc2)CC2CCCN2C1 (single isomer, unassigned) [27a] :: 10%
CC(O)(Cn1c2c(c3cc(Cl)cc(F)c31)C1CCCN1CC2)c1cccnc1 (single isomer, unassigned) [53b] :: 91%

* * *

- target.or.test.system: Human adrenergic α1B receptor (Homo sapiens, UniProt P35368)
- Sequence (P35368 1-520): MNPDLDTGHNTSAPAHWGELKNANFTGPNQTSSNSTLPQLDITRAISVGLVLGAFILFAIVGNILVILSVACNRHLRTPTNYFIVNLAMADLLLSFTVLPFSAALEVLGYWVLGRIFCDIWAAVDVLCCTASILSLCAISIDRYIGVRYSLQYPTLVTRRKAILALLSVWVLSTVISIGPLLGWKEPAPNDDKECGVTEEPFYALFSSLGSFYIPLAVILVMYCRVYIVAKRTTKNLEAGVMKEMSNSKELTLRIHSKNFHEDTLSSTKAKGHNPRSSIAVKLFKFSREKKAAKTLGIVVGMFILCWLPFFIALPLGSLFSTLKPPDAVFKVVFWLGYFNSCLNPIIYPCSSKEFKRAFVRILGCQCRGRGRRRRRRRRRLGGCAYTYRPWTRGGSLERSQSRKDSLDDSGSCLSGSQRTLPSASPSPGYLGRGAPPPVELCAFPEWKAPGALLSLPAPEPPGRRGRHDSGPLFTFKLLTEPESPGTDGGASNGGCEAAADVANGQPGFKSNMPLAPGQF
- method.notes: Radioligand binding, adrenergic α1B (Protocol Group B)
- Set-up: purchased Milipore (Millipore)
- test.parameters: 0.1 μM compound; Protocol Group B; read-out: Percentage inhibition of ligand binding, Adrenergic α1B (0.1 μM)
value.kind: inhibition at 0.1 µM (%)

OC(Cn1c2c(c3cc(Cl)cc(F)c31)C1CCCN1CC2)c1ccncc1 (single isomer, unassigned) [135a] :: 71
Cc1ccc2c(c1)c1c(n2CC(OC(C)C)c2ccncc2)CCN(C)C1 (stereo not shown) :: 9
Cc1ccc2c(c1)c1c(n2CC(OCC2CCC2)c2ccncc2)CCN(C)C1 (single isomer, unassigned) [59a] :: 69
Cc1cc(F)cc2c3c(n(CC(O)c4ccncc4)c12)CCN1CCCC31 (single isomer, unassigned) [136a] :: 31

* * *

- target.or.test.system: Human adrenergic α1B receptor (Homo sapiens)
- method.notes: Radioligand binding, adrenergic α1B (Protocol Group B)
- Parameters: purchased Milipore (Millipore)
- test.parameters: 0.1 μM compound; Protocol Group B; 0.1 µM
value.kind: Percentage inhibition of ligand binding, Adrenergic α1B (0.1 μM) (%)

Cc1ccc2c(c1)c1c(n2CC(C)(O)c2ccc(F)cc2)CN2CCC1C2 (single isomer, unassigned) [134c] :: 8
Cc1ccc2c(c1)c1c(n2CC(OC(N)=O)c2ccncc2)CCN(C)C1 (single isomer, unassigned) :: 18
Cc1cc(F)cc2c3c(n(CC(C)(O)c4cccnc4)c12)CC1CCCN1C3 (single isomer, unassigned) [76a] :: −8
Cc1cc(F)c2c(c1)c1c(n2CC(C)(O)c2ccncc2)CCN2CCCC12 (single isomer, unassigned) [81a] :: 72
